Tested on: human liver microsomes
Experiment Summary: Metabolic stability in human liver microsomes
Type: in vitro ADME
Condition Context: human liver microsomes
For each entry below, report its CIint, intrinsic clearance value.
One number for each entry, in µL/min/mg.

// below: answered molecules
O=C(N[C@@H]1[C@@H]2CC[C@@]1(c1ccc(Cl)cc1)C2)c1cccnc1Cl (relative stereo)    12
O=C(NC1CCN(CCCCC2(C(=O)NCC(F)(F)F)c3ccccc3-c3ccccc32)CC1)c1ccccc1-c1ccc(C(F)(F)F)cc1 [Lomitapide, reference compound]    55
Cn1cc(C(=O)N[C@@H]2[C@H]3C[C@]2(c2cc(F)c(F)c(F)c2)CO3)c(C(F)F)n1 (relative stereo)    23

Could you now consider this next molecule?
Field CIint, intrinsic clearance (entry O=C(NC1CCN(CCCCC2(C(=O)NCC(F)(F)F)c3ccccc3-c3ccccc32)CC1)[C@@H]1[C@H]2C[C@]1(c1ccc(C(F)(F)F)cc1)CO2 (relative stereo) ) reads 87
